Values compiled from patent US20240270821A1.

testedTarget: hGIPR (Homo sapiens, UniProt P48546)
Sequence (P48546 22-466): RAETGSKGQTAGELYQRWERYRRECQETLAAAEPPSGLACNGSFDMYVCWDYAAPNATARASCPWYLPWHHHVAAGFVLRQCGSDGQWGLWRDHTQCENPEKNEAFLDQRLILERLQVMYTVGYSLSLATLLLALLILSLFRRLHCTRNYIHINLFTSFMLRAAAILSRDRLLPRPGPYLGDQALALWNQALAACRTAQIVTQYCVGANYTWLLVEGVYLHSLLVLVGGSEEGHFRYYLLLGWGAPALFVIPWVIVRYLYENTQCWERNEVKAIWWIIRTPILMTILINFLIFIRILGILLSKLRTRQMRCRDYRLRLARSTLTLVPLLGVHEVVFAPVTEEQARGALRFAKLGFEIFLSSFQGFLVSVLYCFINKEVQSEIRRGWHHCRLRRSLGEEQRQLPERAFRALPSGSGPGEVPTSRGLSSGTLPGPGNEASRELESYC
protocolSummary: Functional cAMP activation in the presence of 0.1% casein (no HSA);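 note: intracellular cAMP rise after 30 min at 37 °C read by HTRF against a standard curve, scaled between buffer alone (0%) and top control ligand concentration (100%), four-parameter fit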
Format: cell-based
conditionInfo: in the presence of 0.1% casein (no HSA); geometric mean; read-out: Relative cAMP EC50, hGIPR
Starred links: 1 amine or outer side, 2 acyl side, 3 side chain; linkers in the order of their positions; H or OH if unused. Non-standard residues stand in square brackets, D forms with d. Groups on a side chain read outwards from the residue. *: point of attachment. C20 diacid = O=C(O)CCCCCCCCCCCCCCCCCCC(=O)*; C18 diacid = O=C(O)CCCCCCCCCCCCCCCCC(=O)*; γGlu = O=C(O)[C@H](CCC(=O)[*:2])N[*:1]; αMe4Pal = C[C@](N)(Cc1ccncc1)C(=O)O; 4Pal = N[C@@H](Cc1ccncc1)C(=O)O; αMeL = CC(C)C[C@](C)(N)C(=O)O; Orn = NCCC[C@H](N)C(=O)O; AEEA = NCCOCCOCC(=O)O; Aib = CC(C)(N)C(=O)O
testReadout: EC50 (nM)
Report only the number, with the unit nM understood.

Worked cases, answers included:
                                  substance  quantitativeresult
0  H-Y[Aib]QGTFTSD[4Pal]SQ[αMeL]LDKK([AEEA-γGlu-C18 diacid])AQ[αMe4Pal]AFIEWLIEGGPSSGAPPPSGS-NH2 [Example 830]               0.132
1  H-Y[Aib]QGTFTSDFS[Orn][αMeL]LDKK([AEEA-γGlu-C20 diacid])AQ[Aib]AFIEYLLE[Aib]GPSSGAPPPSEG-NH2 [Example 61]               0.122

Query: Could you share what EC50 was measured for H-Y[Aib]QGTFTSDFS[Orn][αMeL]LDKK([AEEA-AEEA-γGlu-C18 diacid])AQ[Aib]AFIEYLLE[dA]GPSSGEPPPSGQ-NH2 [Example 157] , tested on hGIPR (Homo sapiens, UniProt P48546)?
Result: 0.183

---

testedTarget: hGIPR (Homo sapiens, UniProt P48546)
protocolSummary: Functional cAMP activity in the presence of 1% HSA
Assay type: cell-based
conditionInfo: read-out: cAMP Rel EC50, hGIPR
Starred links: 1 amine or outer side, 2 acyl side, 3 side chain; linkers in the order of their positions; H or OH if unused. Non-standard residues stand in square brackets, D forms with d. Groups on a side chain read outwards from the residue. No end group written: not given here. *: point of attachment. C18 diacid = O=C(O)CCCCCCCCCCCCCCCCC(=O)*; αMePhe(2-F) = C[C@](N)(Cc1ccccc1F)C(=O)O; γGlu = O=C(O)[C@H](CCC(=O)[*:2])N[*:1]; αMe4Pal = C[C@](N)(Cc1ccncc1)C(=O)O; αMeY = C[C@](N)(Cc1ccc(O)cc1)C(=O)O; 4Pal = N[C@@H](Cc1ccncc1)C(=O)O; αMeL = CC(C)C[C@](C)(N)C(=O)O; αMeS = C[C@](N)(CO)C(=O)O; Orn = NCCC[C@H](N)C(=O)O; AEEA = NCCOCCOCC(=O)O; Aib = CC(C)(N)C(=O)O
testReadout: EC50
Remember to follow the number with its unit.

Query: Tell me the measured EC50 of H-Y[Aib]QGTFTSDFS[Orn][αMeL]LDKK([AEEA-γGlu-C18 diacid])AQ[Aib]AFIEYLLEGGHSSGAPPPGGS-NH2 [Example 162] , please.
Result: 37.5 nM

Query: Tell me the measured EC50 of H-Y[Aib]QGT[αMePhe(2-F)]TSD[4Pal][αMeS]I[αMeL]LD[Orn]K([AEEA-γGlu-C18 diacid])AQ[Aib][Orn]FI[dE][αMeY]LIEGGPSSGEPEPSEG-NH2 [Example 481] , please.
Result: 1.19 nM

Query: Tell me the measured EC50 of H-Y[Aib]QGTFTSD[4Pal]SQ[αMeL]LD[Orn]K([γGlu-γGlu-C18 diacid])AQ[αMe4Pal]AFIEYLIE[dA]GPSSGEPPPSGS-NH2 [Example 1019] , please.
Result: 21.3 nM

Query: Tell me the measured EC50 of Y[Aib]QGTFTSDFS[Orn][αMeL]LDKK([AEEA-γGlu-C18 diacid])AQ[Aib]AFIEYLLAGGPSSGEPPPEGE-NH2 [Example 98] , please.
Result: 33.8 nM

Query: Tell me the measured EC50 of H-Y[Aib]QGTFTSDFS[Orn][αMeL]LDKK([AEEA-γGlu-C18 diacid])AQ[Aib]AFIEYLLE[dA]GPSSGAPPPSG[4Pal]-NH2 [Example 211] , please.
Result: 20.6 nM
